read-out: CYP4A11 (gene 1579); assay: LTEA_HepaRG_CYP4A11: Life Technologies and Expression Analysis (LTEA) Assay for CYP4A11 using HepaRG (AID 2283486); conditions: mRNA level, 48 h; actives raise or lower the signal
Calls of active or inactive are those of the source. The calls were made as follows: active = hit-call score of the fitted dose curve at least 0.9, where 1 is the maximum; inactive = score below 0.9.
Give one outcome, nothing more. List: true (1) = active, false (0) = inactive

Recorded test call requested for CCCN(CCC)c1c([N+](=O)[O-])cc(C(C)C)cc1[N+](=O)[O-] true (1)

Recorded test call requested for c1cc2c3c(cccc3c1)CC2 false (0)

Recorded test call requested for [N-]=[N+]=[N-] true (1)

Recorded test call requested for CCOP(=S)(Oc1ccc([N+](=O)[O-])cc1)c1ccccc1 (stereo not drawn) true (1)

Recorded test call requested for CCCCN(CCCC)SN(C)C(=O)Oc1cccc2c1OC(C)(C)C2 false (0)

Recorded test call requested for O=P1(N(CCCl)CCCl)NCCCO1 (stereo not drawn) false (0)

Recorded test call requested for CC(Cl)(Cl)C(=O)O false (0)

Recorded test call requested for c1ccc(OP(Oc2ccccc2)Oc2ccccc2)cc1 false (0)

Recorded test call requested for CSC(C)(C)C=NO false (0)

Recorded test call requested for COCCOCCO false (0)

Recorded test call requested for O=C(O)C1C(C(=O)O)C2(Cl)C(Cl)=C(Cl)C1(Cl)C2(Cl)Cl (stereo not drawn) false (0)

Recorded test call requested for c1nc[nH]n1 false (0)

Recorded test call requested for O=[N+]([O-])c1ccccc1 false (0)

The origin of these recorded values is PubChem BioAssay (EPA / NIEHS).
